Molecular target: Receptor-type tyrosine-protein kinase FLT3 (Homo sapiens)
Sequence (P36888 whole entry): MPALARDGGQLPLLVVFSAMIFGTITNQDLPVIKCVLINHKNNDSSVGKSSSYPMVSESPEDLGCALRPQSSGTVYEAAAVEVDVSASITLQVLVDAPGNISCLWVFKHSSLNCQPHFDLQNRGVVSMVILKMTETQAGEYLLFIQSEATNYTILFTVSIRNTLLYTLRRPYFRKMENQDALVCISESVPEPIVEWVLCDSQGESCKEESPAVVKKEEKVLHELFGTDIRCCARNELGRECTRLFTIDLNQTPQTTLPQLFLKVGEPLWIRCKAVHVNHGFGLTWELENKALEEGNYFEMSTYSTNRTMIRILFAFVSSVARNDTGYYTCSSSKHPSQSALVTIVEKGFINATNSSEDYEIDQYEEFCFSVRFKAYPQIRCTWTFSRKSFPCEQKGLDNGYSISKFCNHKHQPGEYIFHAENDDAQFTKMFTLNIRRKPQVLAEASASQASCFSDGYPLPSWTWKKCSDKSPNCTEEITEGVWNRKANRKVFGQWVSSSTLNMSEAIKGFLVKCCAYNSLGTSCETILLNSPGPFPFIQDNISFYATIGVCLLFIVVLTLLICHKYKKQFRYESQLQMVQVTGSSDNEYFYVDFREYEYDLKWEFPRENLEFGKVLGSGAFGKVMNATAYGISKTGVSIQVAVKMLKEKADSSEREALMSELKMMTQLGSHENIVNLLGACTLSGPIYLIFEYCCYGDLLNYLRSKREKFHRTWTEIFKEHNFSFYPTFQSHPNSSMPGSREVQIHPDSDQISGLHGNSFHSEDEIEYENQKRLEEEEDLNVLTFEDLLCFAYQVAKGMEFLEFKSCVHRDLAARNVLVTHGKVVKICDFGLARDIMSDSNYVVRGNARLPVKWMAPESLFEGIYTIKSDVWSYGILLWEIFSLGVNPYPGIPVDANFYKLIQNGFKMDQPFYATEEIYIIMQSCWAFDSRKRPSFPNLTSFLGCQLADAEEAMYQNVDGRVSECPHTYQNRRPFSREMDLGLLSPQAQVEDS
value-type: log10(IC50) (log10 of the value in nM)

>>> df
                                given_smiles                            assayed_system   value_type  reported_measurement
 0  O=C(Nc1cc(-c2cccc(NS(=O)(=O)c3ccccc3)c2)n[nH]1)c1ccc(OCCN2CCOCC2)cc1  Receptor-type tyrosine-protein kinase FLT3 (Homo sapiens)  log10(IC50)                  1.85
 1  CN1CCN(c2ccc(C(=O)Nc3cc(-c4ccc(NS(=O)(=O)c5ccccc5)cc4)n[nH]3)cc2)CC1  Receptor-type tyrosine-protein kinase FLT3 (Homo sapiens)  log10(IC50)                  2.77
 2  CCCCS(=O)(=O)Nc1cccc(-c2cc(Nc3cc(N4CCN(C)CC4)nc(C)n3)[nH]n2)c1  Receptor-type tyrosine-protein kinase FLT3 (Homo sapiens)  log10(IC50)                  2.04
 3  CN1CCN(c2ccc(C(=O)Nc3cc(-c4cccc(NC(=O)c5ccccc5)c4)n[nH]3)cc2)CC1  Receptor-type tyrosine-protein kinase FLT3 (Homo sapiens)  log10(IC50)                  2.43
 4  CN1CCN(c2ccc(C(=O)Nc3cc(-c4cccc(NS(=O)(=O)c5ccccc5)c4)n[nH]3)cc2)CC1  Receptor-type tyrosine-protein kinase FLT3 (Homo sapiens)  log10(IC50)                  1.11
 5  O=C(Nc1cc(-c2cccc(NS(=O)(=O)c3ccccc3)c2)n[nH]1)c1ccc(OCCN2CCCC2)cc1  Receptor-type tyrosine-protein kinase FLT3 (Homo sapiens)  log10(IC50)                  0.85
 6  Cc1nc(Nc2cc(-c3cccc(NS(=O)(=O)c4ccccc4)c3)n[nH]2)cc(N2CCN(CCO)CC2)n1  Receptor-type tyrosine-protein kinase FLT3 (Homo sapiens)  log10(IC50)                  1.70
 7  CN1CCN(c2ccc(C(=O)Nc3cc(-c4cccc(NS(=O)(=O)c5ccc(Cl)cc5)c4)n[nH]3)cc2)CC1  Receptor-type tyrosine-protein kinase FLT3 (Homo sapiens)  log10(IC50)                  2.08
 8  Cc1ccc(S(=O)(=O)Nc2cccc(-c3cc(NC(=O)c4ccc(N5CCN(C)CC5)cc4)[nH]n3)c2)cc1  Receptor-type tyrosine-protein kinase FLT3 (Homo sapiens)  log10(IC50)                  1.18
 9  CCCS(=O)(=O)Nc1cccc(-c2cc(NC(=O)c3ccc(N4CCN(C)CC4)cc3)[nH]n2)c1  Receptor-type tyrosine-protein kinase FLT3 (Homo sapiens)  log10(IC50)                  2.00
10  CN1CCN(c2ccc(C(=O)Nc3cc(-c4cccc(NC(=O)Nc5ccccc5)c4)n[nH]3)cc2)CC1  Receptor-type tyrosine-protein kinase FLT3 (Homo sapiens)  log10(IC50)                  1.30
11  Cc1cccc(S(=O)(=O)Nc2cccc(-c3cc(NC(=O)c4ccc(N5CCN(C)CC5)cc4)[nH]n3)c2)c1  Receptor-type tyrosine-protein kinase FLT3 (Homo sapiens)  log10(IC50)                  0.85
12  CN1CCN(c2cccc(C(=O)Nc3cc(-c4cccc(NS(=O)(=O)c5ccccc5)c4)n[nH]3)c2)CC1  Receptor-type tyrosine-protein kinase FLT3 (Homo sapiens)  log10(IC50)                  1.81

* * *

Experiment: AUC (0 to infinity) in Sprague-Dawley rat at 5 mg/kg, iv
Type: ADME, organism-based
Design: time infinity, dose 5 mg/kg, route intravenous
Details: plasma
value-type: AUC(0-inf) (ng·h/mL)

>>> print(df.to_string())
                               given_smiles  value_type  reported_measurement
0  CN1CCN(c2ccc(C(=O)Nc3cc(-c4cccc(NS(=O)(=O)c5ccccc5)c4)n[nH]3)cc2)CC1  AUC(0-inf)                   551
1  Cc1cccc(S(=O)(=O)Nc2cccc(-c3cc(NC(=O)c4ccc(N5CCN(C)CC5)cc4)[nH]n3)c2)c1  AUC(0-inf)                  1200
2  O=C(Nc1cc(-c2cccc(NS(=O)(=O)c3ccccc3)c2)n[nH]1)c1ccc(OCCN2CCCC2)cc1  AUC(0-inf)                  3940

* * *

Target: Vascular endothelial growth factor receptor 1 (Homo sapiens)
Sequence (P17948 whole entry): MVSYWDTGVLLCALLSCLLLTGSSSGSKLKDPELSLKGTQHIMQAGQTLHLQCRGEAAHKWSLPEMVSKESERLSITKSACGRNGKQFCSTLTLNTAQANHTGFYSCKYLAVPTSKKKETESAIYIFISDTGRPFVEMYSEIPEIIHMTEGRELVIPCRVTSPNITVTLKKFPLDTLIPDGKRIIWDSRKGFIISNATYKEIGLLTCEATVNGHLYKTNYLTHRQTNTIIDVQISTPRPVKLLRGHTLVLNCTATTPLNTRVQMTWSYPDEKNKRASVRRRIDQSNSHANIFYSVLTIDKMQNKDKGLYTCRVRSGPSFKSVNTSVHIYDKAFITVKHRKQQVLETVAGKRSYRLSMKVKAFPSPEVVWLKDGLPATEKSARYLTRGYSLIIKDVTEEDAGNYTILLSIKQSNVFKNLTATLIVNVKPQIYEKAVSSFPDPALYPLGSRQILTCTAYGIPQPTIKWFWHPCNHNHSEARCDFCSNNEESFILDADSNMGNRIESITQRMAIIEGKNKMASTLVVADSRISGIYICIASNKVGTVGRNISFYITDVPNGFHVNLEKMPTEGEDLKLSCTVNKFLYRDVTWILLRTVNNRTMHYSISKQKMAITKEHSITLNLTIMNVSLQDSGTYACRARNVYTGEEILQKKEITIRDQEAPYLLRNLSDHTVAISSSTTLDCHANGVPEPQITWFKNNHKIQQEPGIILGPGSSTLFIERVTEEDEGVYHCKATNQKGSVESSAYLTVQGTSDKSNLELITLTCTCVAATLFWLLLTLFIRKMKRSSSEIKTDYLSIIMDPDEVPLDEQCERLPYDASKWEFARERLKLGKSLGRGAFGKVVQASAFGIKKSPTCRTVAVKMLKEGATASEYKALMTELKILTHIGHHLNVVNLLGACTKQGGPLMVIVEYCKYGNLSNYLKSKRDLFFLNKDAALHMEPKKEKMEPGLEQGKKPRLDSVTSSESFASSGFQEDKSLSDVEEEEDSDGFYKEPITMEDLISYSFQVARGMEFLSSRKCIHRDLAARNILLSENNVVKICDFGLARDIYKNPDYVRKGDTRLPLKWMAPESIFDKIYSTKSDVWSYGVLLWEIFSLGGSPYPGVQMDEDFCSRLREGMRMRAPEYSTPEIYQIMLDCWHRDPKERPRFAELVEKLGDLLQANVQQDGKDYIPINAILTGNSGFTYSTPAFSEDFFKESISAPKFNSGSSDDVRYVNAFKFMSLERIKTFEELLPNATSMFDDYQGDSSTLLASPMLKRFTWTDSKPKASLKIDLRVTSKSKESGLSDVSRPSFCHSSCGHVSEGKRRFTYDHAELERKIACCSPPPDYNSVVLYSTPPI
Assay: Inhibition of recombinant GST-tagged VEGFR1 expressed in Sf9 insect cells after 120 mins by Kinase-Glo assay
pIC50: −log10 of the molar value.
value-type: pIC50

>>> df
                               given_smiles  relation_operator  reported_measurement
0  O=C(Nc1cc(-c2cccc(NS(=O)(=O)c3ccccc3)c2)n[nH]1)c1cccc(N2CCOCC2)c1                  <                  6.00
1  CN1CCN(c2ccc(C(=O)Nc3cc(-c4cccc(NS(=O)(=O)c5ccc(Cl)cc5)c4)n[nH]3)cc2)CC1                  =                  6.24
2  CN1CCN(c2ccc(C(=O)Nc3cc(-c4cccc(NS(=O)(=O)c5ccccc5)c4)n[nH]3)cc2)CC1                  =                  6.68
3  Cc1nc(NCCN2CCOCC2)cc(Nc2cc(-c3cccc(NS(=O)(=O)c4ccccc4)c3)n[nH]2)n1                  <                  3.00
4  COc1ccc(S(=O)(=O)Nc2cccc(-c3cc(NC(=O)c4ccc(N5CCN(C)CC5)cc4)[nH]n3)c2)cc1                  =                  6.38
5  O=C(Nc1cc(-c2cccc(NS(=O)(=O)c3ccccc3)c2)n[nH]1)c1ccc(N2CCOCC2)cc1                  <                  6.00

* * *

Test: Clearance in Sprague-Dawley rat at 5 mg/kg, iv
Format: ADME, organism-based
Design: dose 5 mg/kg, route intravenous
Conditions: in vivo
Measured clearance of individual entries
value-type: clearance (mL/min/kg)

In [3]: df
Out[3]:
                               given_smiles  reported_measurement
0  CN1CCN(c2ccc(C(=O)Nc3cc(-c4cccc(NS(=O)(=O)c5ccccc5)c4)n[nH]3)cc2)CC1                   102
1  O=C(Nc1cc(-c2cccc(NS(=O)(=O)c3ccccc3)c2)n[nH]1)c1ccc(OCCN2CCCC2)cc1                  22.3
2  Cc1cccc(S(=O)(=O)Nc2cccc(-c3cc(NC(=O)c4ccc(N5CCN(C)CC5)cc4)[nH]n3)c2)c1                  67.4
